molecular target: T1, Cynomolgus monkey recombinant glycophorin A ectodomain (Cynomolgus monkey); test: ELISA, Fab on coated recombinant cyno GPA ectodomain
T1 construct: extracellular domain
measurementKind: binding in ELISA relative to parental Fab

For orientation, consider the following solved cases.
[[record]]
binder = "TPP-5696, Hu6C12-24 Fab variant VH: (D66G, L70M) (Fab, V domains shown, Built on the parental Fab TPP-4935) VH: EVQLVQSGAEVKKPGASVKVSCKASGYTFTTYTIHWVRQAPGQGLEWIGYINPSSDYTRYNPKFKGRVTMTTDKSTSTAYMELRSLRSDDTAVYYCQTGTRDYWGQGTTVTVSS VL: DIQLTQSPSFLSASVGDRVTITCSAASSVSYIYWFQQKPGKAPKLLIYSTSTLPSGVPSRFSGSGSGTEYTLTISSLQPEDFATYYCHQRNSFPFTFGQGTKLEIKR"
result = "1.2 relative to parental Fab"

[[record]]
binder = "TPP-4935, humanized 6C12 parental Fab (Hu6C12-24) (Fab, V domains shown, also called parent Fab; TPP-4935 (Parental)) VH: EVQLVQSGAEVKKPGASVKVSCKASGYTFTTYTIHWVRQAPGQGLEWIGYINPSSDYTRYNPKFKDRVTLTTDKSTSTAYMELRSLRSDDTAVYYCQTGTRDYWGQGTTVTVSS VL: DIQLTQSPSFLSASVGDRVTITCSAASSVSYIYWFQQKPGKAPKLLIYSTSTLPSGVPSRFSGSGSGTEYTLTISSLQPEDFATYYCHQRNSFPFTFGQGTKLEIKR"
result = "1 relative to parental Fab"

[[record]]
binder = "TPP-5697, Hu6C12-24 Fab variant VH: (D66G, L70M, T72R) (Fab, V domains shown, Built on the parental Fab TPP-4935) VH: EVQLVQSGAEVKKPGASVKVSCKASGYTFTTYTIHWVRQAPGQGLEWIGYINPSSDYTRYNPKFKGRVTMTRDKSTSTAYMELRSLRSDDTAVYYCQTGTRDYWGQGTTVTVSS VL: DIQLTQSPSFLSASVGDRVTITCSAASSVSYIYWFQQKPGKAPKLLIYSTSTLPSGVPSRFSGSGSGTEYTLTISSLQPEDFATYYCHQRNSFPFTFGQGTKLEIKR"
result = "1.2 relative to parental Fab"

[[record]]
binder = "TPP-5837, Hu6C12-24 Fab variant VL: (S24R, A26S, S49A, P54Q, F95Y); VH: (I48M, D66G) (Fab, V domains shown, Built on the parental Fab TPP-4935) VH: EVQLVQSGAEVKKPGASVKVSCKASGYTFTTYTIHWVRQAPGQGLEWMGYINPSSDYTRYNPKFKGRVTLTTDKSTSTAYMELRSLRSDDTAVYYCQTGTRDYWGQGTTVTVSS VL: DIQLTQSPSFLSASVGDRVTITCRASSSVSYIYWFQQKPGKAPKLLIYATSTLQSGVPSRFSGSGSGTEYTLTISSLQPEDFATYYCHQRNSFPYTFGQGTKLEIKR"
result = "1.1 relative to parental Fab"

[[record]]
binder = "TPP-5840, Hu6C12-24 Fab variant VL: (S24R, A26S, S49A, P54Q, F95Y); VH: (L70M, T72R) (Fab, V domains shown, Built on the parental Fab TPP-4935) VH: EVQLVQSGAEVKKPGASVKVSCKASGYTFTTYTIHWVRQAPGQGLEWIGYINPSSDYTRYNPKFKDRVTMTRDKSTSTAYMELRSLRSDDTAVYYCQTGTRDYWGQGTTVTVSS VL: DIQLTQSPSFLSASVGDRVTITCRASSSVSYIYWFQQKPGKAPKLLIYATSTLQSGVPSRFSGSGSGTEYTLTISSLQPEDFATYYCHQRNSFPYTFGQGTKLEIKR"
result = "1 relative to parental Fab"


Item: TPP-5678, Hu6C12-24 Fab variant VH: (I48M, D66G, L70M, T72R) (Fab, V domains shown, Built on the parental Fab TPP-4935) VH: EVQLVQSGAEVKKPGASVKVSCKASGYTFTTYTIHWVRQAPGQGLEWMGYINPSSDYTRYNPKFKGRVTMTRDKSTSTAYMELRSLRSDDTAVYYCQTGTRDYWGQGTTVTVSS VL: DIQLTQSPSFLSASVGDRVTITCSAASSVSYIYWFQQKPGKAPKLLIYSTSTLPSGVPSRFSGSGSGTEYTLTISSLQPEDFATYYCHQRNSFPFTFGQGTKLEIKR | binding in ELISA relative to parental Fab: 1.2 relative to parental Fab

Item: TPP-5842, Hu6C12-24 Fab variant VL: (S24R, A26S, S49A, P54Q, F95Y); VH: (D66G, L70M, T72R) (Fab, V domains shown, Built on the parental Fab TPP-4935) VH: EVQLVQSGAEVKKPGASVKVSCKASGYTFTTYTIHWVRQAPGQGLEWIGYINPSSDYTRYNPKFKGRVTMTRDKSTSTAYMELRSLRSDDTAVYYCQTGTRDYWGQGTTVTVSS VL: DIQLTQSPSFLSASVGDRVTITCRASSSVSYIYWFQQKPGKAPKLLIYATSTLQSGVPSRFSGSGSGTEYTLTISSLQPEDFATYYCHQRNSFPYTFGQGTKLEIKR | binding in ELISA relative to parental Fab: 1.1 relative to parental Fab

Item: TPP-5674, Hu6C12-24 Fab variant VH: (I48M, L70M) (Fab, V domains shown, Built on the parental Fab TPP-4935) VH: EVQLVQSGAEVKKPGASVKVSCKASGYTFTTYTIHWVRQAPGQGLEWMGYINPSSDYTRYNPKFKDRVTMTTDKSTSTAYMELRSLRSDDTAVYYCQTGTRDYWGQGTTVTVSS VL: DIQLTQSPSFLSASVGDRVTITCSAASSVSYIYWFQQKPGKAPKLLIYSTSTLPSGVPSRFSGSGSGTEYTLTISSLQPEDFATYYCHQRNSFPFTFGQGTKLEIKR | binding in ELISA relative to parental Fab: 1.1 relative to parental Fab

Item: TPP-5906, humanized and germlined 6C12 Fab; VL: (S24R, A26S, S49A, P54Q, F95Y); VH: (I48M, D56G, D66G, L70M, T72R) (Fab, V domains shown, The text says that a 6xHIS tag is present on the Fabs in the peptide ELISA; it is not in the printed chains) VH: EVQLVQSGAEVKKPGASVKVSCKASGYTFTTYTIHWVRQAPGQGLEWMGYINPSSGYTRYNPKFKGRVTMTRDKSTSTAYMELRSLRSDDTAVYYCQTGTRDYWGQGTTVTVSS VL: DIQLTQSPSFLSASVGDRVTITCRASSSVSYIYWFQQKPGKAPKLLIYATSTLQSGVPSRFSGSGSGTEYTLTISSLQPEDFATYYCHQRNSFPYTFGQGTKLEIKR | binding in ELISA relative to parental Fab: 1.4 relative to parental Fab

Item: TPP-5835, Hu6C12-24 Fab variant VL: (S24R, A26S, S49A, P54Q, F95Y); VH: (I48M, L70M) (Fab, V domains shown, Built on the parental Fab TPP-4935) VH: EVQLVQSGAEVKKPGASVKVSCKASGYTFTTYTIHWVRQAPGQGLEWMGYINPSSDYTRYNPKFKDRVTMTTDKSTSTAYMELRSLRSDDTAVYYCQTGTRDYWGQGTTVTVSS VL: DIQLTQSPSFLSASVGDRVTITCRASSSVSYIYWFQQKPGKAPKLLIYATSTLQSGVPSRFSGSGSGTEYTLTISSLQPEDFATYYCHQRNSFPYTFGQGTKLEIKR | binding in ELISA relative to parental Fab: 1.1 relative to parental Fab
